List of apparent KD of K4 kissing-loop reporter values.
Test system: K4 kissing-loop RNA reporter;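 note: bound reporter read as fluorescence of individual clusters on recovered sequencing chips by microscopy, with normalized cluster intensities fitted with a binding model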
Test: apparent KD of K4 kissing-loop reporter; higher = weaker reporter binding
Conditions: Eterna round: R107; input ligand: FMN 200 uM
Give the quantity in nM, number only.

Illustrative cases are given below, each with its answer.
monomer_sequence="CGAGUGAUGUUCGUUUUUUACUCUUUUUGACAGGAUAUGCGGAAACGCAGAAGGGUCACCUUUGAGUUAAAAGGAGUUAUUUUUU [Ex FMN A 19]" property_name="apparent KD of K4 kissing-loop reporter" meas_value=345
monomer_sequence="UUUGGUUUCUCGGCCGCCACUCGUUGUCUAUCGGCUUCAGGGAUAUAGUGAUGUUAUGUAUAGAAGAGGACCGGGAGAAGGUUUU [ExTryptoB.Dw]" property_name="apparent KD of K4 kissing-loop reporter" meas_value=467
monomer_sequence="UUAGUCUAGAGAAGGAGCGAGUGAUGUUUGCUAAGAUCUAUGAUAUCAUAGAUCAAAUUUACUCAGGUAGGUCGCUCUAGACAUU [AK4 Exc Arginine B]" property_name="apparent KD of K4 kissing-loop reporter" meas_value=294
monomer_sequence="GGUGACAGCCAGGAGUGAUGUAUAGAAUAGCGAGGACCGGUACGGCCGCCACUCGUGAAGAGAAAGGAGUGAUGUUCCGUAAUGG [Kazoo C2]" property_name="apparent KD of K4 kissing-loop reporter" meas_value=224

For reference, reported apparent KD of K4 kissing-loop reporter for AAAUACAUUUUAUUAUAUAACUUUUCAGAAGGAGCGUGGAAGUUCACAGGUAGGUCGCUGAAUAUUGGACUAGUGAUGUUAGUUA [JR_Nu_SSArginiA_Sub021] stands at 222

For reference, reported apparent KD of K4 kissing-loop reporter for CACAAUUAAUUACAGUGAUGUUGUAAUCUGCGAGGACCGGUACGGCCGCCACUCGGGCUUGUAGGGCGCCCACAUUCUUAUACUA [theeternabot_sameState_KL_Trp_A_29] stands at 447

For reference, reported apparent KD of K4 kissing-loop reporter for CAUUACGGUCGCUUACCAAACCACUACUUCCGAGGACCGGUACGGCCGCCACUCGCCAGUGAUGUUGGCUCGGGCGGCCGAUUAU [Orrebeante] stands at 117
